I'd appreciate it if you could supply Rmax values for the items below.
Target: Neuronal acetylcholine receptor; alpha4/beta4 (Homo sapiens, UniProt P30926+P43681)
Assay: Maximal response against Nicotinic acetylcholine receptor alpha4-beta4
Assay type: protein-complex assay
Form entry: value (%) — number only.

Q) Which Rmax is reported for this compound? Clc1ccc(C2=CCC[C@H]3CCC2N3)cn1
A) 70

Q) Which Rmax is reported for this compound? C#Cc1cncc([C@@H]2CCCN2C)c1
A) 26

Q) Which Rmax is reported for this compound? O=c1c(I)ccc2n1C[C@@H]1CNC[C@H]2C1
A) 105

Q) Which Rmax is reported for this compound? CN1CCC[C@H]1CCSc1ccc(O)cc1
A) 62

Q) Which Rmax is reported for this compound? COc1cc2c(cn1)C1NCCC1CC2 (stereo not given)
A) 44

Q) Which Rmax is reported for this compound? Fc1ccc(C2CC3CCC2N3)cn1 (stereo not given)
A) 131

Q) Which Rmax is reported for this compound? C[N+]1(C)CCN(c2ccccc2)CC1
A) 19

Q) Which Rmax is reported for this compound? O=c1c(Br)ccc2n1C[C@@H]1CNC[C@H]2C1
A) 70

Q) Which Rmax is reported for this compound? c1cncc(C2CC3CCC2N3)c1 (stereo not given)
A) 147

Q) Which Rmax is reported for this compound? CCOc1cncc(/C=C/CCN)c1
A) 16
